Where these numbers come from: patent US20080312271A1

Subject of test: mGluR2 receptor (metabotropic glutamate receptor 2) (Homo sapiens, UniProt Q14416)
Construct: expressed in transfected cells
Sequence (Q14416 19-872, species assumed): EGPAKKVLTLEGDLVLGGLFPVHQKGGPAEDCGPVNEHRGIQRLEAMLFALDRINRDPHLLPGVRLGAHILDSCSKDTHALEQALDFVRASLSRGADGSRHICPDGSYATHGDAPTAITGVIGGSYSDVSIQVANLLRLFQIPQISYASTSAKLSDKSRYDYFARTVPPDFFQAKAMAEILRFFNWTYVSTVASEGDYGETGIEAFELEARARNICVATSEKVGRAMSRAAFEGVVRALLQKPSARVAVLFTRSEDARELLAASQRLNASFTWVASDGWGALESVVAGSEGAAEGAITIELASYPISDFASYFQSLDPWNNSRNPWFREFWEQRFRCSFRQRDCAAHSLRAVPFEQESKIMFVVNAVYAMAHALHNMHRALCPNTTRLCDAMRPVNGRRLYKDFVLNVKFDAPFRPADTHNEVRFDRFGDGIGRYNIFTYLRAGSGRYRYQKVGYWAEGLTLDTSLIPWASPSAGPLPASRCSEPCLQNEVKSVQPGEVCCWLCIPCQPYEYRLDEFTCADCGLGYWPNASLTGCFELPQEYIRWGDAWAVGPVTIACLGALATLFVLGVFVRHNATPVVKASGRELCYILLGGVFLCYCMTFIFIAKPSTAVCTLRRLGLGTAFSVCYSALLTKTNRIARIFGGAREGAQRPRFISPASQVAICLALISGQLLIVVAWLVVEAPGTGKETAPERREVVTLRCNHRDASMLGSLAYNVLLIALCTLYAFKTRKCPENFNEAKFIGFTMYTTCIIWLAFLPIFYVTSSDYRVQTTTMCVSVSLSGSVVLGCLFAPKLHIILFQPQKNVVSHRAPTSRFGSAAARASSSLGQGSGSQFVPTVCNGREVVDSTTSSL
Assay overview: mGluR2 Potentiator Screen, FLIPR, EC10-EC20 glutamate challenge
Assay type: cell-based
pEC50: −log10 of the molar value.
Experimental readout: pEC50

Please review the following examples before continuing.
CCCOc1ccc(Cl)cc1C1CCN(Cc2nc3cccnc3n2C)CC1 [compound 40]
6.39
Cc1ccc([C@H]2CCN(Cc3nc4cnccc4n3C)C[C@H]2C)c(Cl)c1 (relative stereo) [compound 209]
6.80
CC1CN(Cc2nc3ncccc3n2C)CCC1c1ccc(C(F)(F)F)cc1 (centres unmarked) [compound 70]
6.95
C[C@@H]1CN(Cc2nc3ncccc3n2C)CC[C@@H]1c1ccc(OC(F)(F)F)c(Cl)c1 (relative stereo) [compound 213]
6.60
C[C@@H]1CN(Cc2nc3cnccc3n2C)CC[C@@H]1c1ccc(OC(F)(F)F)cc1Cl (relative stereo) [compound 188]
6.71

[I] CCCOc1ccc(Cl)cc1C1CCN(Cc2nc3ncccc3n2C)CC1 [compound 38]
[II] COc1ccc(Cl)cc1C1CCN(Cc2nc3ncccc3n2C)CC1 [compound 43]
Prompt: In terms of reported pEC50, does I or II have the smaller number? Your answer should be the label of the entry you select.
Response: I

* * *

Subject of test: mGluR2 receptor (metabotropic glutamate receptor 2) (Homo sapiens)
Construct: expressed in transfected cells
Assay overview: mGluR2 Potentiator Screen, FLIPR, EC10-EC20 glutamate challenge
Type: cell-based
Experimental readout: EC50 (nM)

For orientation, consider the following solved cases.
C[C@@H]1CN(Cc2nc3ncccc3n2C)CC[C@@H]1c1ccc(OC(F)(F)F)cc1 (relative stereo) [compound 157]
277
COc1ccc(C2CCN(Cc3nc4ncccc4n3C)CC2)cc1F [compound 92]
2800
Cn1c(CN2CCC(c3ccc(Cl)c(F)c3)CC2)nc2cnccc21 [compound 107]
315

[I] Cn1c(CN2CCC(c3cc(C(F)(F)F)cc(C(F)(F)F)c3)CC2)nc2ncccc21 [compound 65]
[II] CC(C)Oc1ccc([C@H]2CCN(Cc3nc4cnccc4n3C)C[C@H]2C)c(C(F)(F)F)c1 (relative stereo) [compound 216]
[III] COc1ccccc1C1CCN(Cc2nc3cnccc3n2C)CC1 [compound 46]
[IV] Cn1c(CN2CCC(c3ccc(F)cc3)CC2)nc2ncccc21 [compound 67]
[V] C[C@@H]1CN(Cc2nc3cnccc3n2C)CC[C@@H]1c1ccc(C(F)(F)F)c(F)c1 (single isomer, unassigned) [compound 183]
Prompt: List items by EC50 in falling order. Ranked list of labels, please, in the requested order.
Response: IV, III, II, I, V
(IV: 2360 nM, III: 1450 nM, II: 287 nM, I: 144 nM, V: 53.2 nM)

* * *

Subject of test: mGluR2 receptor (metabotropic glutamate receptor 2) (Homo sapiens, UniProt Q14416)
Construct: expressed in transfected cells
Assay overview: mGluR2 Potentiator Screen, FLIPR, EC10-EC20 glutamate challenge
Type: cell-based
Method: Procedure for mGluR2 Potentiator Screen NLB methods EC10-EC20 Challenge Cell Culture and Plating: Cells used for this screen are HEK cells stably transfected with the mGluR2 receptor (metabotropic glutamate receptor 2) and the Gα15 G protein. […] Results are analyzed by dividing the peak fluorescent value of the FLIPR response by the […] to achieve a ratio response. The ratios are then analyzed by curve fitting programs. […]
pEC50: −log10 of the molar value.
Experimental readout: pEC50

COc1cc(C(F)(F)F)ccc1[C@H]1CCN(Cc2nc3ncccc3n2C)C[C@H]1C (single isomer, unassigned) [compound 130]
6.10
C[C@@H]1CN(Cc2nc3ncccc3n2C)CC[C@@H]1c1ccc2c(c1)CCO2 (relative stereo)
6.33
COc1cc(C(F)(F)F)ccc1[C@H]1CCN(Cc2nc3ncccc3n2C)C[C@H]1C (single isomer, unassigned) [compound 131]
7.66

[I] C[C@@H]1CN(Cc2nc3cnccc3n2C)CC[C@@H]1c1ccc(C(F)(F)F)cc1F (single isomer, unassigned) [compound 144]
[II] Cn1c(CN2CCC(c3cc(Cl)ccc3F)CC2)nc2ncccc21
[III] C[C@@H]1CN(Cc2nc3ncccc3n2C)CC[C@@H]1c1ccc(F)c(F)c1 (relative stereo)
[IV] Cn1c(CN2CCC(c3ccc(C(F)(F)F)cc3)CC2)nc2ccncc21
Prompt: Thanks in advance: please rank these 4 entries by pEC50, highest to lowest. Return value: ordered labels per request.
Response: I, IV, II, III
